Listed next: entries and their corresponding Emax.
- test target: TGR5 (Homo sapiens, UniProt Q8TDU6)
- protocol: TGR5 activity: cAMP in hTGR5 CHO-k1 cells
- Assay type: cell-based
- Set-up: expressed in transfected cells; host or cells: CHO-k1
- test parameters: 0.5 h; hTGR5 CHO cells; Ref. LCA 100% at 10 μM; read-out: hTGR5 CHO Efficacy
Please answer in the form of a number followed by its unit of measurement.

Consider the reported Emax for these molecules:
molecule	value kind	assay result
CC[C@H]1[C@@H](O)[C@@H]2[C@H](C[C@H](O)[C@]3(C)[C@@H]([C@H](C)C[C@H](CF)C(=O)O)CC[C@@H]23)[C@@]2(C)CC[C@@H](O)C[C@@H]12 [Compound 7]	Emax	27%
CC[C@H]1[C@@H](O)C2C3CC[C@H]([C@H](C)CC(=O)NCCOS(=O)(=O)[O-])[C@@]3(C)CCC2[C@@]2(C)CC[C@@H](O)C[C@@H]12.[Na+] (stereo partly shown) [Compound 21]	Emax	105%
CC[C@H]1[C@@H](O)[C@@H]2[C@H](CC[C@]3(C)[C@@H]([C@H](C)CCc4nn[nH]n4)[C@@H](O)C[C@@H]23)[C@@]2(C)CC[C@@H](O)C[C@@H]12 [Compound 17]	Emax	103%

Now for a further molecule.
Give Emax for this entry on TGR5 (Homo sapiens, UniProt Q8TDU6): CC[C@H]1[C@@H](O)[C@@H]2[C@H](C[C@H](O)[C@]3(C)[C@@H]([C@H](C)C[C@H](O)C(=O)O)CC[C@@H]23)[C@@]2(C)CC[C@@H](O)C[C@@H]12 [Compound 1]
103%

###

- protocol: Lipophilicity, 1-octanol/water partition coefficient (shake-flask)
- Format: physicochemical
- test parameters: pH 8.00, ionized BA
Label scheme for LogPA−: lower than 0.9 is N, 0.9 and above is Y.

Previously resolved entries follow.
molecule	class label
CC[C@H]1[C@@H](O)C2C3CC[C@H]([C@H](C)CCc4noc(=O)[nH]4)[C@@]3(C)[C@@H](O)CC2[C@@]2(C)CC[C@@H](O)C[C@@H]12 (stereo partly shown) [Compound 11]	Y
CC[C@H]1[C@@H](O)[C@@H]2[C@H](C[C@H](O)[C@]3(C)[C@@H]([C@H](C)C[C@@H](F)C(=O)O)CC[C@@H]23)[C@@]2(C)CC[C@@H](O)C[C@@H]12 [Compound 9]	N
C[C@H](CC(=O)O)[C@H]1CC[C@H]2[C@@H]3[C@H](O)C[C@@H]4C[C@H](O)CC[C@]4(C)[C@H]3CC[C@]12C [Nor-CDCA, 24-nor-CDCA, reference compound]	N
CC[C@H]1[C@@H](O)[C@@H]2[C@H](CC[C@]3(C)[C@@H]([C@H](C)CCc4nn[nH]n4)[C@@H](O)C[C@@H]23)[C@@]2(C)CC[C@@H](O)C[C@@H]12 [Compound 17]	Y

Item C[C@H](CCC(=O)NCC(=O)O)[C@H]1CC[C@H]2[C@@H]3[C@H](O)C[C@@H]4C[C@H](O)CC[C@]4(C)[C@H]3C[C@H](O)[C@]12C [GCA, reference compound] with LogPA− of 0.9 or above?
N

###

- test target: TGR5 (Homo sapiens, UniProt Q8TDU6)
- Sequence (Q8TDU6 1-330): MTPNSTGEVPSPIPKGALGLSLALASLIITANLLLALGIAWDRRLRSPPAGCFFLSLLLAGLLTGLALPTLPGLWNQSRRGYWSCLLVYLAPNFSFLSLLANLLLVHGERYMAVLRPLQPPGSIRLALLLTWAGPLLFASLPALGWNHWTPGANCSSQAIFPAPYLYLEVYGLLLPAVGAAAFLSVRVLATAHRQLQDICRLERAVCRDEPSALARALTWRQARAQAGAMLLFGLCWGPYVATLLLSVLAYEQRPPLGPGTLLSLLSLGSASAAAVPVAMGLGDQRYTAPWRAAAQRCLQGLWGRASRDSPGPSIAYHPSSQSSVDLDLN
- protocol: TGR5 activity: cAMP in hTGR5 CHO-k1 cells
- Assay type: cell-based
- Design: expressed in transfected cells; host or cells: CHO-k1
- test parameters: hTGR5 CHO cells, cAMP
Listed next: entries and their corresponding pEC50.
Here pEC50 is given on a logarithmic scale as minus log10 of the concentration in mol/L.

# return recorded pEC50 for entry CC[C@H]1[C@@H](O)C2C3CC[C@H]([C@H](C)CCc4nnc(NS(C)(=O)=O)o4)[C@@]3(C)CCC2[C@@]2(C)CC[C@@H](O)C[C@@H]12 (stereo partly drawn)
5.89

# return recorded pEC50 for entry CC[C@H]1[C@@H](O)C2C3CC[C@H]([C@H](C)CCc4nn[nH]n4)[C@@]3(C)CCC2[C@@]2(C)CC[C@@H](O)C[C@@H]12 (stereo partly drawn)
6.14

# return recorded pEC50 for entry CC[C@H]1[C@@H](O)C2C3CC[C@H]([C@H](C)CCc4noc(=O)[nH]4)[C@@]3(C)CCC2[C@@]2(C)CC[C@@H](O)C[C@@H]12 (stereo partly drawn)
5.92
